Entry source: patent US20230125667A1

Tested on: T-47D
Assay: NCI-60 growth inhibition: T-47D (Breast Cancer)
Type: cell-based, human
Conditions: Homo sapiens, T47D
Recorded GI50 values for a group of compounds are listed next.
Kindly answer with a numeric value in µM, unit omitted.

Worked set:
C=C1C(=O)O[C@H]2[C@H]1CC/C(COC(=O)NCc1ccc(Cn3c(=O)sn(CCI)c3=O)cc1)=C\CC[C@@]1(C)O[C@@H]21
1.32
C=C1C(=O)O[C@H]2[C@H]1CC/C(COC(=O)NCc1ccc(Cn3c(=O)sn(-c4ccc(OC)cc4)c3=O)cc1)=C\CC[C@@]1(C)O[C@@H]21
1.86
C=C1C(=O)O[C@H]2[C@H]1CC/C(COC(=O)NCc1ccc(Cn3c(=O)sn(CCCC)c3=O)cc1)=C\CC[C@@]1(C)O[C@@H]21
2.04
C=C1C(=O)O[C@H]2[C@H]1CC/C(COC(=O)NCc1ccc(Cn3c(=O)sn(CCCI)c3=O)cc1)=C\CC[C@@]1(C)O[C@@H]21
1.79

Query: Look up T-47D data: GI50 of C=C1C(=O)O[C@H]2[C@H]1CC/C(COC(=O)NCc1ccc(Cn3c(=O)sn(-c4ccccc4)c3=O)cc1)=C\CC[C@@]1(C)O[C@@H]21 , then report it.
Response: 1.98
